ASSAY SUMMARY: Apparent volume of distribution during terminal phase in Sprague-Dawley rat at 50 mg/kg, po administered as single dose measured after 0.08 to 24 hrs post dose by LC/MS/MS method
Type: ADME, organism-based
REPORTED CONDITIONS: in vivo, read-out: Vz/F
ASSAY ENDPOINT: Vd/F (L/kg)
Provide only the numeric value, understood in L/kg.

Entry COc1cc(O)ccc1/C=C/C(=O)c1ccc(O)cc1 : reported Vd/F = ?
154

Entry C=CC(C)(C)c1cc(/C=C/C(=O)c2ccc(O)cc2)c(OC)cc1O : reported Vd/F = ?
370

---

ASSAY SUMMARY: MRT (0 to t) in Sprague-Dawley rat at 50 mg/kg, po administered as single dose measured after 0.08 to 24 hrs post dose by LC/MS/MS method
Assay type: ADME, organism-based
REPORTED CONDITIONS: in vivo
ASSAY ENDPOINT: MRT last (h)
Provide only the numeric value, understood in h.

Entry COc1cc(O)ccc1/C=C/C(=O)c1ccc(O)cc1 : reported MRT last = ?
3.98

Entry C=CC(C)(C)c1cc(/C=C/C(=O)c2ccc(O)cc2)c(OC)cc1O : reported MRT last = ?
8.48

---

TARGET OR SYSTEM: Nuclear factor erythroid 2-related factor 2 (Homo sapiens)
ASSAY SUMMARY: Activation of Nrf2 (unknown origin) expressed in human HepG2 cells at 10 uM incubated for 6 hrs by ARE-driven luciferase reporter gene assay relative to untreated control
Format: cell-based
ASSAY ENDPOINT: fold change (FC)
Please respond with just the number, no unit label.

Entry CC1(C)C=Cc2c(O)ccc(C3COc4cc(O)cc(O)c4C3=O)c2O1 (stereo not drawn) : reported fold change (FC) = ?
1.42

Entry CC(C)=CCc1c(O)ccc(-c2cc3ccc(O)cc3o2)c1O : reported fold change (FC) = ?
4.34

Entry CC1(CO)C=Cc2c(ccc(-c3coc4cc(O)ccc4c3=O)c2O)O1 (stereo not drawn) : reported fold change (FC) = ?
2.76

---

ASSAY SUMMARY: MRT (0 to infinity) in Sprague-Dawley rat at 50 mg/kg, po administered as single dose measured after 0.08 to 24 hrs post dose by LC/MS/MS method
Assay type: ADME, organism-based
REPORTED CONDITIONS: in vivo
Provide the recorded MRT inf for the entries that follow.
Report field: quantity (unit follows the number).

Entry COc1cc(O)ccc1/C=C/C(=O)c1ccc(O)cc1 : reported MRT inf = ?
3.98 h

Entry C=CC(C)(C)c1cc(/C=C/C(=O)c2ccc(O)cc2)c(OC)cc1O : reported MRT inf = ?
14.5 h

---

TARGET OR SYSTEM: Nuclear factor erythroid 2-related factor 2 (Homo sapiens) (UniProt Q16236)
Sequence (Q16236 whole entry): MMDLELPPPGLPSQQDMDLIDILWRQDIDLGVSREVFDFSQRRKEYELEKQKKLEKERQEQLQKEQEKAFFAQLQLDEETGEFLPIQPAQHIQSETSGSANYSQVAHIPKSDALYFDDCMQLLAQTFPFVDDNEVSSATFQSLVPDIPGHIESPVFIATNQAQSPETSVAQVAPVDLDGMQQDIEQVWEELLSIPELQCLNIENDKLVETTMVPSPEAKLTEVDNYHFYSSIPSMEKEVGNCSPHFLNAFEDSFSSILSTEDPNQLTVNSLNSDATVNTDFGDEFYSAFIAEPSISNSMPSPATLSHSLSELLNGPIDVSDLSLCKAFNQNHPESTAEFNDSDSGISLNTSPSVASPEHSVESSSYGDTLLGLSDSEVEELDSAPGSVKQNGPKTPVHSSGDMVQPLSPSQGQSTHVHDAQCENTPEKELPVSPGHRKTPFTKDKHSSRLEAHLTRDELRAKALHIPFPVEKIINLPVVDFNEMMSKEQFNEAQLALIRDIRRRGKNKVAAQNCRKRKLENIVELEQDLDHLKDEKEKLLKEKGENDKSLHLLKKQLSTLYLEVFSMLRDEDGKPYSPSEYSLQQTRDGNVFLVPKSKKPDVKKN
ASSAY SUMMARY: Activation of Nrf2 (unknown origin) expressed in human HepG2 cells at 10 uM incubated for 6 hrs by ARE-driven luciferase reporter gene assay relative to untreated control
Assay type: cell-based
# fold change (FC) >= 2 gives Fulfilled, anything below gives Not fulfilled

Item CC(C)=CCc1cc(-c2cc(=O)c3cc4c(cc3o2)OC(C)(C)C=C4)ccc1O with fold change (FC) of 2 or above?
Not fulfilled

Item CC(C)=CCc1c(O)cc(O)c2c(=O)c(-c3ccc4c(c3O)C=CC(C)(C)O4)coc12 with fold change (FC) of 2 or above?
Not fulfilled

Item O=C1c2c(O)cc(O)cc2OCC1c1ccc(O)cc1 (stereo not given) with fold change (FC) of 2 or above?
Not fulfilled

Item CC(C)=CCc1cc([C@@H]2CC(=O)c3ccc(O)cc3O2)cc2c1OC(C)(C)C=C2 with fold change (FC) of 2 or above?
Not fulfilled

Item CC(C)=CCc1cc(-c2coc3cc(O)cc(O)c3c2=O)cc(O)c1O with fold change (FC) of 2 or above?
Not fulfilled

Item CC(C)=CCc1c(O)cc(O)c2c(=O)c(-c3ccc(O)cc3O)coc12 with fold change (FC) of 2 or above?
Not fulfilled

Item COc1ccc(-c2coc3cc(O)ccc3c2=O)c(O)c1 with fold change (FC) of 2 or above?
Fulfilled

Item CC1(C)C=Cc2c(ccc3c2OC[C@@H](c2ccc(O)cc2O)C3)O1 with fold change (FC) of 2 or above?
Fulfilled

Item CC(C)=CCc1c(O)cc2occ(-c3ccc(O)cc3)c(=O)c2c1O with fold change (FC) of 2 or above?
Not fulfilled

Item CC1(C)[C@@H](O)CC[C@]2(C)[C@H]3CC=C4[C@@H]5C[C@@](C)(C(=O)O)CC[C@]5(C)CC[C@@]4(C)[C@]3(C)CC[C@@H]12 with fold change (FC) of 2 or above?
Not fulfilled

Item COc1cc(O)c(-c2coc3cc(O)ccc3c2=O)c(OC)c1CC=C(C)C with fold change (FC) of 2 or above?
Not fulfilled

Item CC(C)=CCc1cc(-c2coc3c(CC=C(C)C)c(O)cc(O)c3c2=O)cc(O)c1O with fold change (FC) of 2 or above?
Not fulfilled

Item CC1(C)C=Cc2c(ccc(-c3coc4cc(O)ccc4c3=O)c2O)O1 with fold change (FC) of 2 or above?
Not fulfilled

Item COc1c(/C=C/C(=O)c2ccc(O)c(O)c2)ccc(O)c1CC=C(C)C with fold change (FC) of 2 or above?
Fulfilled

Item CC(C)=CCc1c(O)ccc(-c2coc3cc(O)ccc3c2=O)c1O with fold change (FC) of 2 or above?
Fulfilled

Item CC(C)=CCc1cc(C2CC(=O)c3ccc(O)c(CC=C(C)C)c3O2)ccc1O (stereo not given) with fold change (FC) of 2 or above?
Not fulfilled

Item CC(C)=CCc1cc(/C=C/C(=O)c2ccc(O)c(CC=C(C)C)c2O)ccc1O with fold change (FC) of 2 or above?
Not fulfilled

Item CC(C)=CCc1cc([C@@H]2CC(=O)c3cc(CC=C(C)C)c(O)cc3O2)ccc1O with fold change (FC) of 2 or above?
Not fulfilled

Item CC(C)=CCc1c(O)c(CC=C(C)C)c2occ(-c3ccc(O)cc3)c(=O)c2c1O with fold change (FC) of 2 or above?
Not fulfilled

---

ASSAY SUMMARY: AUC (0 to t) in Sprague-Dawley rat at 50 mg/kg, po administered as single dose measured after 0.08 to 24 hrs post dose by LC/MS/MS method
Format: ADME, organism-based
Set-up: dose 50 mg/kg, time 0.08-24 hr, route oral
REPORTED CONDITIONS: in vivo
Provide the recorded AUC(0-t) for the entries that follow.
Provide only the numeric value, understood in ng·h/mL.

Entry C=CC(C)(C)c1cc(/C=C/C(=O)c2ccc(O)cc2)c(OC)cc1O : reported AUC(0-t) = ?
837

Entry COc1cc(O)ccc1/C=C/C(=O)c1ccc(O)cc1 : reported AUC(0-t) = ?
686

---

TARGET OR SYSTEM: Nuclear factor erythroid 2-related factor 2 (Homo sapiens) (UniProt Q16236)
ASSAY SUMMARY: Activation of Nrf2 (unknown origin) expressed in human HepG2 cells at 10 uM incubated for 6 hrs by ARE-driven luciferase reporter gene assay relative to untreated control
Type: cell-based
ASSAY ENDPOINT: fold change (FC)
Please respond with just the number, no unit label.

Entry C=CC(C)(C)c1cc(/C=C/C(=O)c2ccc(O)c(O)c2)c(OC)cc1O : reported fold change (FC) = ?
5.98

Entry COc1cc(-c2coc3cc(O)ccc3c2=O)ccc1O : reported fold change (FC) = ?
1.12

Entry COc1c(/C=C/C(=O)c2ccc(O)cc2)ccc(O)c1O : reported fold change (FC) = ?
5.17

Entry CC(C)=CCc1c(O)ccc2c1O[C@H](c1ccc3c(c1)C=CC(C)(C)O3)CC2=O : reported fold change (FC) = ?
1.4

Entry COc1cc2occ(-c3ccc(O)cc3O)c(=O)c2c(O)c1CC=C(C)C : reported fold change (FC) = ?
2.36

Entry CC(C)=CCc1c(O)ccc(C(=O)/C=C/c2ccc(O)c(O)c2)c1O : reported fold change (FC) = ?
1.56

Entry CC1(C)C=Cc2c(O)ccc(-c3coc4cc(O)cc(O)c4c3=O)c2O1 : reported fold change (FC) = ?
1.7

Entry COc1c(/C=C/C(=O)c2ccc(O)cc2)ccc(O)c1CC=C(C)C : reported fold change (FC) = ?
1.42

Entry CC1(C)C=Cc2c(ccc(-c3cc4ccc(O)cc4o3)c2O)O1 : reported fold change (FC) = ?
1.08

Entry CC1(C)C=Cc2c(ccc3c(=O)c(-c4ccc(O)cc4O)coc23)O1 : reported fold change (FC) = ?
1.76

Entry CC1(C)C(=O)CC[C@]2(C)[C@H]3C(=O)C=C4[C@@H]5C[C@@](C)(C(=O)O)CC[C@]5(C)CC[C@@]4(C)[C@]3(C)[C@@H](O)C[C@@H]12 : reported fold change (FC) = ?
1.18

Entry CC1(C)C=Cc2c(ccc(-c3coc4cc(O)cc(O)c4c3=O)c2O)O1 : reported fold change (FC) = ?
1.47

Entry COc1c(/C=C/C(=O)c2ccc(O)cc2)cc(CC=C(C)C)c(O)c1O : reported fold change (FC) = ?
3.39

Entry CC(C)=CCc1cc([C@@H]2CC(=O)c3c(O)cc(O)c(CC=C(C)C)c3O2)ccc1O : reported fold change (FC) = ?
1.41

Entry COC(C)(C)c1cc2cc3c(=O)cc(-c4ccc(O)c(CC=C(C)C)c4)oc3cc2o1 : reported fold change (FC) = ?
1.54

Entry O=C1C[C@@H](c2ccc(O)cc2)Oc2cc(O)ccc21 : reported fold change (FC) = ?
1.97

Entry O=C(/C=C/c1ccc(O)c(O)c1)c1ccc(O)c(O)c1 : reported fold change (FC) = ?
1.85

Entry CC(C)=CCc1c(O)cc2occ(-c3ccc4c(c3)C=CC(C)(C)O4)c(=O)c2c1O : reported fold change (FC) = ?
1.34

Entry O=c1cc(-c2ccc(O)cc2)oc2cc(O)ccc12 : reported fold change (FC) = ?
1.23

Entry CC(C)=CCc1c(O)cc2occ(-c3ccc4c(c3O)C=CC(C)(C)O4)c(=O)c2c1O : reported fold change (FC) = ?
1.37

Entry COc1ccc(C2COc3c(cc(CC=C(C)C)c(O)c3O)C2=O)cc1 (stereo unspecified) : reported fold change (FC) = ?
1.06
